- method-summary: Water solubility by shake-flask method in alkaline aqueous solution
- Format: physicochemical
- measurement-context: aqueous KOH 1 M or NaOH 1 M solution, aqueous buffer, thermodynamic from solid, KOH 1 M or NaOH 1 M; read-out: solubility in ionic environment containing one type of alkaline cation
value-type: solubility

query: Which measured solubility value corresponds to Cc1cc(OCCCC(=O)O)cc2c1C(=O)c1c(O)cccc1C2=O [Compound B-M3CH] ?
result: ~150 mM

----------
- method-summary: Water solubility by shake-flask method in alkaline aqueous solution
- Format: physicochemical
- measurement-context: aqueous NaOH 1 M solution, aqueous buffer, thermodynamic from solid, aqueous NaOH 1 M, shake-flask, approximate; read-out: solubility estimated, NaOH (1M)
Below, each entry is listed alongside its reported solubility.
Quick reminder: number only, in mM, skip the unit.

Solved cases (2 shown):
INSERT INTO measurements (substance_smiles, value_type, data_value) VALUES
  ('Cc1cc(O)cc2c1C(=O)c1c(O)cccc1C2=O', 'solubility', 500),
  ('Cc1cc(OCCCC(=O)O)cc2c1C(=O)c1c(O)cccc1C2=O', 'solubility', 150);

query: For Cc1c(C(=O)O)c(O)cc2c1C(=O)c1c(O)cccc1C2=O , what is its reported solubility?
result: 320
